System: Aorta
Test name: Vasorelaxant activity in endothelium-denuded Wistar rat thoracic aortic ring assessed as inhibition of phenylephrine-induced contraction
Format: functional, tissue-based
Form field: IC50 (one value per entry).

[
  {
    "Mol smiles": "CN(/N=C/c1ccccc1)C(=O)c1ccc2c(c1)OCO2",
    "IC50, µM": 11.1
  },
  {
    "Mol smiles": "CN(/N=C/c1cccs1)C(=O)c1ccc2c(c1)OCO2",
    "IC50, µM": 18.5
  },
  {
    "Mol smiles": "CN(/N=C/c1ccco1)C(=O)c1ccc2c(c1)OCO2",
    "IC50, µM": 15.7
  },
  {
    "Mol smiles": "CN(/N=C/c1ccc[nH]1)C(=O)c1ccc2c(c1)OCO2",
    "IC50, µM": 17.8
  }
]

From: ChEMBL document CHEMBL1154071
